- Test system: U-266
- assay-details: cells
- Format: functional, cell-based
- measurement-parameters: Homo sapiens
- Description: SANGER: Inhibition of human U-266 cell growth in a cell viability assay.
pIC50: −log10 of the molar value.
observed-property: pIC50

Consider the worked cases shown below.
structure-as-smiles	target-under-test	pIC50
COc1ccc(C2=N[C@@H](c3ccc(Cl)cc3)[C@@H](c3ccc(Cl)cc3)N2C(=O)N2CCNC(=O)C2)c(OC(C)C)c1	U-266	< 5.10
CC(=O)O[C@@H]1[C@@H](OC(C)=O)[C@@H](O)[C@H](Oc2c(-c3ccc(O)cc3)oc3cc(O)cc(O)c3c2=O)O[C@H]1C	U-266	< 5.00
CO[C@H]1C[C@@H]2CC[C@@H](C)[C@@](O)(O2)C(=O)C(=O)N2CCCC[C@H]2C(=O)O[C@H]([C@H](C)C[C@@H]2CC[C@@H](O)[C@H](OC)C2)CC(=O)[C@H](C)/C=C(\C)[C@@H](O)[C@@H](OC)C(=O)[C@H](C)C[C@H](C)/C=C/C=C/C=C/1C	U-266	< 7.00

Ask | Given the entry CN1CCN(CCOc2cc(OC3CCOCC3)c3c(Nc4c(Cl)ccc5c4OCO5)ncnc3c2)CC1 , report its measured pIC50.
Reply | < 5.70

----------
Please go through the items and note down their IC50.
- Tested on: MV4-11;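 note: cell viability readout measuring growth inhibition of human MV-4-11 cells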
- assay-details: cells
- Assay type: functional, cell-based, MV-4-11
- measurement-parameters: Homo sapiens
- Description: SANGER: Inhibition of human MV-4-11 cell growth in a cell viability assay.

Consider the worked cases shown below.
compound	IC50
CC(=O)O[C@@H]1[C@@H](OC(C)=O)[C@@H](O)[C@H](Oc2c(-c3ccc(O)cc3)oc3cc(O)cc(O)c3c2=O)O[C@H]1C	> 10 µM
C[C@]1(O)C[C@@H](c2nc(-c3ccc4ccc(-c5ccccc5)nc4c3)c3c(N)nccn32)C1 [LINSITINIB]	> 2.56 µM
O=C(/C=C/c1ccccc1)NC(NC(=S)Nc1cccc2cccnc12)C(Cl)(Cl)Cl (stereo unspecified) [SALUBRINAL]	> 16 µM
CN1CCN(CCOc2cc(OC3CCOCC3)c3c(Nc4c(Cl)ccc5c4OCO5)ncnc3c2)CC1 [SARACATINIB]	> 2 µM
CC1=C2C[C@H]3[C@@H](CC=C4C[C@@H](O)CC[C@@]43C)[C@@H]2CC[C@]12O[C@@H]1C[C@H](C)CN[C@H]1[C@H]2C [CYCLOPAMINE]	> 16 µM

// below: IC50 requested for another compound
Ask | Given the entry C=CCc1cccc(/C=N/NC(=O)CN2CCN(Cc3ccccc3)CC2)c1O [PAC-1] , report its measured IC50.
Reply | > 2.56 µM

----------
- System: IST-MEL1;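 note: growth inhibition of the cell line, read out with a cell viability assay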
- assay-details: cells
- Type: functional, cell-based, Homo sapiens
- measurement-parameters: Homo sapiens, IST-MEL1
- Description: SANGER: Inhibition of human IST-MEL1 cell growth in a cell viability assay.
Please go through the items and note down their IC50.

structure-as-smiles	target-under-test	observed-property	recorded-value
CN(C)C/C=C/C(=O)Nc1cc2c(Nc3ccc(F)c(Cl)c3)ncnc2cc1O[C@H]1CCOC1	IST-MEL1	IC50	> 0.5 µM
CNC(=O)c1cc(Oc2ccc(NC(=O)Nc3ccc(Cl)c(C(F)(F)F)c3)cc2)ccn1	IST-MEL1	IC50	> 4 µM

Kindly give each listed record's IC50.
1. CC(=O)O[C@@H]1[C@@H](OC(C)=O)[C@@H](O)[C@H](Oc2c(-c3ccc(O)cc3)oc3cc(O)cc(O)c3c2=O)O[C@H]1C
2. CN(c1ncccc1CNc1nc(Nc2ccc3c(c2)CC(=O)N3)ncc1C(F)(F)F)S(C)(=O)=O

Reply |
> 10 µM
> 2.56 µM
